- Tested on: MCF7
- protocol_notes: Cytotoxicity against human MCF7 cells assessed as cell growth at 0.001 uM after 48 hrs by sulforhodamine B assay
- Assay type: functional
- condition_context: MCF7, 48 h, read-out: Activity
metric_name: growth at 0.001 µM (%)
# number only, unit % dropped from output

1) COc1cc(C)cc(-c2c(-c3ccnc(-c4ccc(C(C)=O)cc4)c3)cnn2CC#N)c1
96
2) Cc1cc(O)cc(-c2nn(CC#N)cc2-c2ccnc(-c3ccc(N(C)C)cc3)c2)c1
97
3) COc1cc(C)cc(-c2nn(CC#N)cc2-c2ccc(-c3cccc(C(C)=O)c3)nc2)c1
94
4) COc1cc(C)cc(-c2nn(CC#N)cc2-c2ccnc(-c3ccc(N(C)C)cc3)c2)c1
104

Next compound, please.
Recorded growth at 0.001 µM of Cc1cc(O)cc(-c2nn(CC#N)cc2-c2ccnc(-c3ccc(Oc4ccccc4)cc3)c2)c1 , please. 92

----------
- System: NCI-H522
- protocol_notes: Cytotoxicity against human NCI-H522 cells assessed as cell growth at 100 nM after 48 hrs by sulforhodamine B assay
- Type: functional
- condition_context: NCI-H522, 48 h, read-out: Activity
metric_name: growth at 0.1 µM

1. COc1cc(C)cc(-c2nn(CC#N)cc2-c2ccc(-c3cccc(C(C)=O)c3)nc2)c1
68%
2. COc1cc(C)cc(-c2c(-c3ccnc(-c4ccc(C(C)=O)cc4)c3)cnn2CC#N)c1
76%
3. Cc1cc(O)cc(-c2nn(CC#N)cc2-c2ccnc(-c3ccc(Oc4ccccc4)cc3)c2)c1
87%
4. COc1cc(C)cc(-c2nn(CC#N)cc2-c2ccnc(-c3ccc(N(C)C)cc3)c2)c1
-39%
5. Cc1cc(O)cc(-c2nn(CC#N)cc2-c2ccnc(-c3ccc(N(C)C)cc3)c2)c1
75%

Next compound, please.
Recorded growth at 0.1 µM of COc1cc(C)cc(-c2c(-c3ccnc(-c4ccc(N(C)C)cc4)c3)cnn2CC#N)c1 , please. -47%

----------
growth at 10 µM values by entry
- protocol_notes: Cytotoxicity against human Hs 578T cells assessed as cell growth at 10 uM
- Type: functional
- condition_context: read-out: Activity
# number only, unit % dropped from output

1) COc1cc(C)cc(-c2nn(CC#N)cc2-c2ccnc(-c3ccc(N(C)C)cc3)c2)c1
31.6

Recorded growth at 10 µM of COc1cc(C)cc(-c2nn(CC#N)cc2-c2ccnc(-c3cccc(NC(C)=O)c3)c2)c1 , please. 99

Recorded growth at 10 µM of COc1cc(C)cc(-c2c(-c3ccnc(-c4ccc(C(C)=O)cc4)c3)cnn2CC#N)c1 , please. 88.5

Recorded growth at 10 µM of COc1cc(C)cc(-c2nn(CC#N)cc2-c2ccnc(-c3ccc(Oc4ccccc4)cc3)c2)c1 , please. 94.3

Recorded growth at 10 µM of COc1cc(C)cc(-c2nn(CC#N)cc2-c2ccnc(-c3ccc(C#N)cc3)c2)c1 , please. 93.4

Recorded growth at 10 µM of Cc1cc(O)cc(-c2nn(CC#N)cc2-c2ccnc(-c3ccccc3)c2)c1 , please. 84.6

----------
- Tested on: RXF 393
- protocol_notes: Cytotoxicity against human RXF393 cells assessed as cell growth at 1 uM after 48 hrs by sulforhodamine B assay
- Type: functional
- condition_context: RXF 393, 48 h, read-out: Activity
growth at 1 µM values by entry
# number only, unit % dropped from output

Take a look at these entries with their results.
1. COc1cc(C)cc(-c2c(-c3ccnc(-c4ccc(C(C)=O)cc4)c3)cnn2CC#N)c1
-27
2. COc1cc(C)cc(-c2nn(CC#N)cc2-c2ccnc(-c3ccc(N(C)C)cc3)c2)c1
-21
3. Cc1cc(O)cc(-c2nn(CC#N)cc2-c2ccnc(-c3ccc(Oc4ccccc4)cc3)c2)c1
-58
4. Cc1cc(O)cc(-c2nn(CC#N)cc2-c2ccnc(-c3ccc(N(C)C)cc3)c2)c1
-32

Next molecule, please.
Recorded growth at 1 µM of COc1cc(C)cc(-c2nn(CC#N)cc2-c2ccc(-c3cccc(C(C)=O)c3)nc2)c1 , please. -58

Taken from ChEMBL document CHEMBL1165950.
